Hey, just so you know, these numbers are from the supplement of paper PMC10567573.

Hi there, I'd appreciate the recorded protein stability index for every entry that follows.
B1: CDC25B (parent)
chain: ELKTFRLKTRSWAGERSRRELCSR

# Variants of: B1
# method notes: protein stability index of a GFP-peptide fusion (GPS, HEK-293T) (PSI 1-6); higher = more stable;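 further: lentivirally expressed fusions sorted by FACS into six bins by GFP to DsRed ratio, PSI derived from sequencing read proportions per bin multiplied by bin number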
# assay conditions: c terminus: a fixed tail appended
Note: the reply should be a number with no unit written.

INPUT: Please look at this variant and report its protein stability index: K8A
OUTPUT: 2.88

INPUT: Please look at this variant and report its protein stability index: L7C
OUTPUT: 3.98

INPUT: Please look at this variant and report its protein stability index: R6L
OUTPUT: 2.04

INPUT: Please look at this variant and report its protein stability index: S11R
OUTPUT: 2.4

INPUT: Please look at this variant and report its protein stability index: R16H
OUTPUT: 3.46

INPUT: Please look at this variant and report its protein stability index: F5N
OUTPUT: 3.63

INPUT: Please look at this variant and report its protein stability index: R19H
OUTPUT: 3.13

INPUT: Please look at this variant and report its protein stability index: R24P
OUTPUT: 2.82

INPUT: Please look at this variant and report its protein stability index: G14N
OUTPUT: 2.48

INPUT: Please look at this variant and report its protein stability index: E1I
OUTPUT: 1.9

INPUT: Please look at this variant and report its protein stability index: R16Q
OUTPUT: 3.62

INPUT: Please look at this variant and report its protein stability index: K8F
OUTPUT: 2.28

INPUT: Please look at this variant and report its protein stability index: S23K
OUTPUT: 3.62

INPUT: Please look at this variant and report its protein stability index: R10Y
OUTPUT: 3.19

INPUT: Please look at this variant and report its protein stability index: R19C
OUTPUT: 2.25

INPUT: Please look at this variant and report its protein stability index: A13F
OUTPUT: 1.88

INPUT: Please look at this variant and report its protein stability index: T9V
OUTPUT: 2.6
